- target.entity: DAZ2/3 (Homo sapiens, UniProt Q9NR90)
- Sequence: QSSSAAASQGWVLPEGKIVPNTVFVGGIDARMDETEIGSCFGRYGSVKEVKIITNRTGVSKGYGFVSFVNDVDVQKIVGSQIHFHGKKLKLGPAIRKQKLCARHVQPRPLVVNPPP
- measurement.protocol: protein domain microarray probed with biotinylated miRNA; Domain array: 20 mM Tris-HCl pH 7.4, 200 mM KCl, 0.2 mM EDTA, 0.05% NP40, 2 ug/ul heparin, overnight 4 C. ORF array: PBS pH 7.0 with RNase inhibitor, 100 ng RNA; high values mean tight binding
- setup.conditions: ssRNA
# binding signal per record follows

sequence.text: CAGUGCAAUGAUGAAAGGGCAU
uom: fluorescence intensity
binding signal: 70.6

sequence.text: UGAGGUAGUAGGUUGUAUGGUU
uom: fluorescence intensity
binding signal: 151

sequence.text: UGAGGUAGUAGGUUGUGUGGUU
uom: fluorescence intensity
binding signal: 288

sequence.text: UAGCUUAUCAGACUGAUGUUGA
uom: fluorescence intensity
binding signal: 153

----------
- target.entity: CELF6(1-2) (Homo sapiens)
- Sequence (Q96J87 21-233): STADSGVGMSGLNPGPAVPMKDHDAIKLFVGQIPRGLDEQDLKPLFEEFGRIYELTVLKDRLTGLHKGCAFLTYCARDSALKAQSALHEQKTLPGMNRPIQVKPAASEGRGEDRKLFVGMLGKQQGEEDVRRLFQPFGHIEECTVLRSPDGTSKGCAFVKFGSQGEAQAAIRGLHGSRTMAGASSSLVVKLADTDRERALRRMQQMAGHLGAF
- measurement.protocol: protein domain microarray probed with biotinylated miRNA; Domain array: 20 mM Tris-HCl pH 7.4, 200 mM KCl, 0.2 mM EDTA, 0.05% NP40, 2 ug/ul heparin, overnight 4 C. ORF array: PBS pH 7.0 with RNase inhibitor, 100 ng RNA; high values mean tight binding
- setup.conditions: ssRNA
metric: binding signal (fluorescence intensity)

sequence.text: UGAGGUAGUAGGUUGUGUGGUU
metric: binding signal
data.value: 224
//
sequence.text: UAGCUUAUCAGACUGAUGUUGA
metric: binding signal
data.value: 32.2
//
sequence.text: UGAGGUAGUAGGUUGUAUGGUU
metric: binding signal
data.value: 89.8
//
sequence.text: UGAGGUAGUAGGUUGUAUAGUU
metric: binding signal
data.value: 28.4

----------
- target.entity: HNRPLL (Homo sapiens, UniProt Q8WVV9)
- Sequence: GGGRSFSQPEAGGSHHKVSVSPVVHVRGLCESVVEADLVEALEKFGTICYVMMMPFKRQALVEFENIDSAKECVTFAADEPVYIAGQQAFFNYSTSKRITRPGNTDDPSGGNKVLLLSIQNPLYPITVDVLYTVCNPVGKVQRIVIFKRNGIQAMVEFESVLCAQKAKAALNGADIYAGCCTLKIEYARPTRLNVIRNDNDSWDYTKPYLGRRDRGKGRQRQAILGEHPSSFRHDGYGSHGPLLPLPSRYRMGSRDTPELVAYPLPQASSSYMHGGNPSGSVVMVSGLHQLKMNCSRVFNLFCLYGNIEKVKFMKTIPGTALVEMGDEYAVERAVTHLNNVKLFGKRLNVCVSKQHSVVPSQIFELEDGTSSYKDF
- measurement.protocol: protein domain microarray probed with biotinylated miRNA; Domain array: 20 mM Tris-HCl pH 7.4, 200 mM KCl, 0.2 mM EDTA, 0.05% NP40, 2 ug/ul heparin, overnight 4 C. ORF array: PBS pH 7.0 with RNase inhibitor, 100 ng RNA; high values mean tight binding
- setup.conditions: ssRNA
# binding signal per record follows
metric: binding signal (fluorescence intensity)

sequence.text: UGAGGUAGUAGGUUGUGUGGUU
metric: binding signal
data.value: 120

sequence.text: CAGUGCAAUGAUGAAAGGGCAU
metric: binding signal
data.value: 68.7

sequence.text: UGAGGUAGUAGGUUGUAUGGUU
metric: binding signal
data.value: 97.4

sequence.text: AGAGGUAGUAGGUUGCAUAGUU
metric: binding signal
data.value: 123

----------
- target.entity: STRBP(1) (Homo sapiens, UniProt Q96SI9)
- Sequence: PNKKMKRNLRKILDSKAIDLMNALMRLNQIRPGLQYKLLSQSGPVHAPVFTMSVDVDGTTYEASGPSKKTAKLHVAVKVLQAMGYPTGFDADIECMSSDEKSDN
- measurement.protocol: protein domain microarray probed with biotinylated miRNA; Domain array: 20 mM Tris-HCl pH 7.4, 200 mM KCl, 0.2 mM EDTA, 0.05% NP40, 2 ug/ul heparin, overnight 4 C. ORF array: PBS pH 7.0 with RNase inhibitor, 100 ng RNA; high values mean tight binding
- setup.conditions: ssRNA
metric: binding signal (fluorescence intensity)

sequence.text: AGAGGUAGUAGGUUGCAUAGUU
data.value: 34.2
//
sequence.text: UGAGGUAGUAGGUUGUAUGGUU
data.value: 62.8
//
sequence.text: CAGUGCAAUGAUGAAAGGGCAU
data.value: 38
//
sequence.text: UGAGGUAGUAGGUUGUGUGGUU
data.value: 125

----------
- target.entity: ELAVL4 (Homo sapiens, UniProt P26378)
- Sequence (P26378 30-385): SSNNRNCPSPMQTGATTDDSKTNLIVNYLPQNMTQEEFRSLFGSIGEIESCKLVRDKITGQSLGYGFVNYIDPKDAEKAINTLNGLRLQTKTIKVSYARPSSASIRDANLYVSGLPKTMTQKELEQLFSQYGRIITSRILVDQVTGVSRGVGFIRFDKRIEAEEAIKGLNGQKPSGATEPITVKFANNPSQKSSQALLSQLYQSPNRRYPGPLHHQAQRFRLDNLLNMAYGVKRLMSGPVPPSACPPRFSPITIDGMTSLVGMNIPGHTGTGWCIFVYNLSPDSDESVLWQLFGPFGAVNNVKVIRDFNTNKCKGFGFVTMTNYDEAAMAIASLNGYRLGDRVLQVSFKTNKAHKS
- measurement.protocol: protein domain microarray probed with biotinylated miRNA; Domain array: 20 mM Tris-HCl pH 7.4, 200 mM KCl, 0.2 mM EDTA, 0.05% NP40, 2 ug/ul heparin, overnight 4 C. ORF array: PBS pH 7.0 with RNase inhibitor, 100 ng RNA; high values mean tight binding
- setup.conditions: ssRNA
# binding signal per record follows
metric: binding signal (fluorescence intensity)

sequence.text: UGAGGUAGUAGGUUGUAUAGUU
target.entity: ELAVL4 (Homo sapiens, UniProt P26378)
data.value: 725
--
sequence.text: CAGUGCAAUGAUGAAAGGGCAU
target.entity: ELAVL4 (Homo sapiens, UniProt P26378)
data.value: 1170
--
sequence.text: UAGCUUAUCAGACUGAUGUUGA
target.entity: ELAVL4 (Homo sapiens, UniProt P26378)
data.value: 825
--
sequence.text: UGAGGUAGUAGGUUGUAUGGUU
target.entity: ELAVL4 (Homo sapiens, UniProt P26378)
data.value: 1450

----------
- target.entity: SAFB1 (Homo sapiens, UniProt Q15424)
- Sequence (Q15424 380-500): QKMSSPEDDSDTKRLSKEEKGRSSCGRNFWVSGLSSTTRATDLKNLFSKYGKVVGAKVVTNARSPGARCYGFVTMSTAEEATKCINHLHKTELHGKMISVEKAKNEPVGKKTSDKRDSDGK
- measurement.protocol: protein domain microarray probed with biotinylated miRNA; Domain array: 20 mM Tris-HCl pH 7.4, 200 mM KCl, 0.2 mM EDTA, 0.05% NP40, 2 ug/ul heparin, overnight 4 C. ORF array: PBS pH 7.0 with RNase inhibitor, 100 ng RNA; high values mean tight binding
- setup.conditions: ssRNA
metric: log10 binding signal (log10 of the value in fluorescence intensity)

sequence.text: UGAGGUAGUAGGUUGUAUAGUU
data.value: 1.97
--
sequence.text: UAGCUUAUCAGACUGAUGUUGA
data.value: 1.57
--
sequence.text: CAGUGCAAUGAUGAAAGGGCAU
data.value: 2.36
--
sequence.text: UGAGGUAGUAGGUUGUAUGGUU
data.value: 2.48
--
sequence.text: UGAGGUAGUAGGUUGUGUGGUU
data.value: 2.80

----------
- target.entity: hnRNP-D0 (Homo sapiens)
- Sequence (Q14103 80-280): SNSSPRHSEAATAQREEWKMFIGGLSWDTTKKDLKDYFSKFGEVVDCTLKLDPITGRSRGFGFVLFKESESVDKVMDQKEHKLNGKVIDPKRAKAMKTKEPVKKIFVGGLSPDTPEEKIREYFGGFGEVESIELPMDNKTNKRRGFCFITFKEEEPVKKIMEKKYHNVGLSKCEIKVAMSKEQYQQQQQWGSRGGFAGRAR
- measurement.protocol: protein domain microarray probed with biotinylated miRNA; Domain array: 20 mM Tris-HCl pH 7.4, 200 mM KCl, 0.2 mM EDTA, 0.05% NP40, 2 ug/ul heparin, overnight 4 C. ORF array: PBS pH 7.0 with RNase inhibitor, 100 ng RNA; high values mean tight binding
- setup.conditions: ssRNA

sequence.text: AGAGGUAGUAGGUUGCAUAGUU
binding signal: 1690 fluorescence intensity
--
sequence.text: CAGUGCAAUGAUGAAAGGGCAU
binding signal: 338 fluorescence intensity
--
sequence.text: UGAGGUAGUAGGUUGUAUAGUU
binding signal: 580 fluorescence intensity
--
sequence.text: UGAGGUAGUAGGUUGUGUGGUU
binding signal: 1270 fluorescence intensity

----------
# binding signal per record follows
- target.entity: SF3B4 (Homo sapiens, UniProt Q15427)
- Sequence (Q15427 1-200): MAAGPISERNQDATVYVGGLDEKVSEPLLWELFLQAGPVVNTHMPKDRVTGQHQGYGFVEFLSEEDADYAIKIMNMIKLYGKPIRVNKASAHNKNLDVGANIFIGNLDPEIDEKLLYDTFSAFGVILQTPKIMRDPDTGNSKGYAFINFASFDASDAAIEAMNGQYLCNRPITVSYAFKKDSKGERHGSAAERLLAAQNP
- measurement.protocol: protein domain microarray probed with biotinylated miRNA; Domain array: 20 mM Tris-HCl pH 7.4, 200 mM KCl, 0.2 mM EDTA, 0.05% NP40, 2 ug/ul heparin, overnight 4 C. ORF array: PBS pH 7.0 with RNase inhibitor, 100 ng RNA; high values mean tight binding
- setup.conditions: ssRNA

sequence.text: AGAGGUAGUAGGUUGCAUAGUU
binding signal: 1440 fluorescence intensity
--
sequence.text: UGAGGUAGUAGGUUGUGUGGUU
binding signal: 1290 fluorescence intensity
--
sequence.text: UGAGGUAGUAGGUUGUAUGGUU
binding signal: 638 fluorescence intensity
--
sequence.text: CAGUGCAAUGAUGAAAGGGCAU
binding signal: 1680 fluorescence intensity

----------
# binding signal per record follows
- target.entity: ZCRB1 (Homo sapiens)
- Sequence (Q8TBF4 1-110): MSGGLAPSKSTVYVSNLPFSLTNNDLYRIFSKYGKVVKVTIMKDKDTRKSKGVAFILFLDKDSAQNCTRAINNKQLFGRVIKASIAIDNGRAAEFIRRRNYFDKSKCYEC
- measurement.protocol: protein domain microarray probed with biotinylated miRNA; Domain array: 20 mM Tris-HCl pH 7.4, 200 mM KCl, 0.2 mM EDTA, 0.05% NP40, 2 ug/ul heparin, overnight 4 C. ORF array: PBS pH 7.0 with RNase inhibitor, 100 ng RNA; high values mean tight binding
- setup.conditions: ssRNA
metric: binding signal (fluorescence intensity)

sequence.text: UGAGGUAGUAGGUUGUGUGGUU
metric: binding signal
data.value: 1440
--
sequence.text: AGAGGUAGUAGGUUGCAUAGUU
metric: binding signal
data.value: 1460
--
sequence.text: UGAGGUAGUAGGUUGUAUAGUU
metric: binding signal
data.value: 602
--
sequence.text: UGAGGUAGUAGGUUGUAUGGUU
metric: binding signal
data.value: 1150
--
sequence.text: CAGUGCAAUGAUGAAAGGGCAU
metric: binding signal
data.value: 824
--
sequence.text: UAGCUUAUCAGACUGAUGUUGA
metric: binding signal
data.value: 189
